Exercise: for every item that follows, state its recorded Ki.
- Experimental Target: purified E. coli 70S ribosome (E. coli (endogenous in BW25113), UniProt P60723 1-201; P61175 1-110; P0ADZ0 1-100; P0A7M6 1-63; P0A7J3 1-165)
- Method Notes: FP; competition with cf-Api88
Where no end group is shown, it is not given here. [ ]: non-standard residue; d: D form. Gu = N-terminal tetramethylguanidine; Orn = NCCC[C@H](N)C(=O)O
One number for each entry, in nM.

Reference set, count: 2
Gu-[Orn]NNRPVYIPRPRPPHPRL-NH2 [Api88 (Gu-ONNRPVYIPRPRPPHPRL-NH2)]
2450
Gu-[Orn]NNRPVYIPRPRPPHPRL-OH [Api137 (Gu-ONNRPVYIPRPRPPHPRL-OH)]
3030

Q. Quote Ki reported for VDKPPYLPRPRPPR[dR]IYN[dR]-NH2 [Onc112 (VDKPPYLPRPRPPRrIYNr-NH2)] please.
A. 1870
